Reported hERG current change (%, negative = inhibition) at 10uM values follow for various compounds
Target: human ether-à-go-go-related gene (hERG) potassium channel (human);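 further: peak tail current of the secondary pulse compared with the same well before compound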
Sequence (Q12809 whole entry, looked up): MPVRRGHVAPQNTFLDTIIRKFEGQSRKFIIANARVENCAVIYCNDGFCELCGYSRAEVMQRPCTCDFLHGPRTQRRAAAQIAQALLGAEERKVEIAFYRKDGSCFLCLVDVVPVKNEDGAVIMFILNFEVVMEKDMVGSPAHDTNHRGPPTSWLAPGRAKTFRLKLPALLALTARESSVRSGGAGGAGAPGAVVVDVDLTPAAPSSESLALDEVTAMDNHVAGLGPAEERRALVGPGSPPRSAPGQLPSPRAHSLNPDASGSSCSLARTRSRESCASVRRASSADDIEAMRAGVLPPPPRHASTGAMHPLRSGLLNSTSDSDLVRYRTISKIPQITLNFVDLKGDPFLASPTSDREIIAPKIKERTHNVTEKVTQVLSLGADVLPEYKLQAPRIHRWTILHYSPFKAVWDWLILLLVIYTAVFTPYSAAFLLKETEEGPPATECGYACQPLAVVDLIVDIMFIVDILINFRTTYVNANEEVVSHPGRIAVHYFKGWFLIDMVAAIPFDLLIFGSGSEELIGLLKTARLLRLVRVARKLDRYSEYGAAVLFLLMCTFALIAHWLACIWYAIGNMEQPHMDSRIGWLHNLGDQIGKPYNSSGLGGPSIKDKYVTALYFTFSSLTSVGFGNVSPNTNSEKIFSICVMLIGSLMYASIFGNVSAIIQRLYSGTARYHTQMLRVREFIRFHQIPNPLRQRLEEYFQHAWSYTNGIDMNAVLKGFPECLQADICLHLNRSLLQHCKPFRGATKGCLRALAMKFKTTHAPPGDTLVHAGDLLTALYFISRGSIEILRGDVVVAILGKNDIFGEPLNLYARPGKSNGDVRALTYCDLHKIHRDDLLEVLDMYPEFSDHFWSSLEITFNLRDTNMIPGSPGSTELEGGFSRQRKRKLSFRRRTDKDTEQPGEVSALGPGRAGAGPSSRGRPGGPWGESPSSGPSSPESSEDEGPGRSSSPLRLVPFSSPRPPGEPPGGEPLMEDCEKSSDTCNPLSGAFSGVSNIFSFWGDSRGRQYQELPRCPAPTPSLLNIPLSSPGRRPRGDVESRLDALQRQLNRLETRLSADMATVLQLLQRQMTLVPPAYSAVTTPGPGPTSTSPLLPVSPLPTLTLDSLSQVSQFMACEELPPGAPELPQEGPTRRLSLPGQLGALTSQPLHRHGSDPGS
Test: primary screen, population patch clamp on CHO cells stably expressing hERG; higher = less effect of the substance
About 14,000 (4.5%) of roughly 310,000 compounds showed an effect of 50% or more. Effects have a minus sign here. This excerpt belongs to a sample that is enriched for strong results.
assay metric: hERG current change (%, negative = inhibition) at 10uM (%)

# compound, recorded measurement
measured = [
    ("CN1CCN(c2ccc([N+](=O)[O-])cc2C(=O)c2ccc(Cl)cc2)CC1", -67.4),
    ("Cc1cc(N2CCN(C(=O)c3ccco3)CC2)c2ccccc2n1", -71.8),
    ("O=C(c1ccc(Cl)cc1)c1cc([N+](=O)[O-])ccc1N1CCOCC1", -32.4),
    ("O=C(c1ccco1)N1CCN(c2nc3ccccc3c(=O)n2-c2ccccc2)CC1", -54.9),
    ("Cc1cc(=O)[nH]c(N2CCN(C(=O)c3ccco3)CC2)n1", 14),
    ("O=C(c1ccc(Br)cc1)c1cc([N+](=O)[O-])ccc1N1CCOCC1", -30.7),
    ("Cc1occc1C(=O)NNC(=O)CN1C(=O)NC(C)(c2ccccc2)C1=O (centres unmarked)", 19.1),
    ("COC(=O)CCC(=O)Nc1ccccc1C(N)=O", 23.1),
    ("COc1ccc(OCC(=O)N/N=C(\\C)CC(=O)Nc2ccc(OC)cc2[N+](=O)[O-])cc1", -93.8),
    ("CN1CCN(c2ccc([N+](=O)[O-])cc2C(=O)N2CCCCC2)CC1", -7.66),
    ("O=C(c1ccco1)N1CCN(Cc2nc3ccccc3c(=O)n2-c2ccc(F)cc2)CC1", -18.8),
    ("COCCn1c(-c2ccccc2)nc(=S)c2c1CC(C)(C)OC2", -11.5),
    ("O=C(O)CCCN=C1NC2(CCCC2)Cc2ccccc21", -39.6),
    ("CCOc1ccc(OCC(=O)Nc2ccc(OC)cc2[N+](=O)[O-])cc1", 3.3),
    ("Cc1ccccc1Cn1cc(NC(=O)CCCn2nc([N+](=O)[O-])cc2C)cn1", -7.52),
    ("Cc1cc(N2CCN(c3ccccc3)CC2)nc(-c2ccccc2)n1", -30.9),
    ("O=C(c1ccco1)N1CCN(C(=O)c2cc(Cl)nc3ccccc23)CC1", -35.2),
    ("COCc1ccccc1C1=CC(=O)C[C@H](c2ccc(OC)cc2)C1", -12.3),
    ("O=C(c1ccc(Br)cc1)c1cc([N+](=O)[O-])ccc1N1CCCCC1", -25.3),
    ("Cc1ccc(NC(=S)NC2CCN(Cc3ccccc3)CC2)c(C)c1", -12.9),
]

Sourced from paper PMC4336329
